The measured values listed here are drawn from ChEMBL document CHEMBL1155057.

experimental system: 5-hydroxytryptamine receptor 1A (Homo sapiens) (UniProt P08908)
Sequence (whole entry): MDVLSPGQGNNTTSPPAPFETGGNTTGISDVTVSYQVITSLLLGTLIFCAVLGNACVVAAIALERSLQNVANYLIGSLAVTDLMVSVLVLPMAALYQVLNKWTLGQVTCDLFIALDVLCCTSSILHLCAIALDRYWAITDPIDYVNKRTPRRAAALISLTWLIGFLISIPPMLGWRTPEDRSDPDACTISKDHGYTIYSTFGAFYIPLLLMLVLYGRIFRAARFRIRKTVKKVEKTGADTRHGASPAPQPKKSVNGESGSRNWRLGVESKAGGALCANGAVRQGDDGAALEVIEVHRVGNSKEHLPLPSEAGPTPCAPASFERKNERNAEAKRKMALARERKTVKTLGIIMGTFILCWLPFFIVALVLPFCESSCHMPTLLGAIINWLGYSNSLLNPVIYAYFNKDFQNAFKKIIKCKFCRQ
assay overview: Intrinsic activity at human 5HT1A receptor expressed in CHO cells by GTPgammaS binding assay relative to serotonin
Type: functional, cell-based
observable: Emax (%)

(1) Fc1ccc2c(c1)[nH]cc2[C@H]1CC[C@@H](N2CCN(c3cccc4[nH]ccc34)CC2)CC1
(2) N#Cc1ccc2[nH]cc([C@H]3CC[C@H](N4CCN(c5cccc6ncccc56)CC4)CC3)c2c1
Ask: Choose between 1 and 2 : whose measured Emax value is numerically larger? // respond with label for picked entry
Reply: 2

---

experimental system: UniProt P31652
Sequence (P31652 whole entry): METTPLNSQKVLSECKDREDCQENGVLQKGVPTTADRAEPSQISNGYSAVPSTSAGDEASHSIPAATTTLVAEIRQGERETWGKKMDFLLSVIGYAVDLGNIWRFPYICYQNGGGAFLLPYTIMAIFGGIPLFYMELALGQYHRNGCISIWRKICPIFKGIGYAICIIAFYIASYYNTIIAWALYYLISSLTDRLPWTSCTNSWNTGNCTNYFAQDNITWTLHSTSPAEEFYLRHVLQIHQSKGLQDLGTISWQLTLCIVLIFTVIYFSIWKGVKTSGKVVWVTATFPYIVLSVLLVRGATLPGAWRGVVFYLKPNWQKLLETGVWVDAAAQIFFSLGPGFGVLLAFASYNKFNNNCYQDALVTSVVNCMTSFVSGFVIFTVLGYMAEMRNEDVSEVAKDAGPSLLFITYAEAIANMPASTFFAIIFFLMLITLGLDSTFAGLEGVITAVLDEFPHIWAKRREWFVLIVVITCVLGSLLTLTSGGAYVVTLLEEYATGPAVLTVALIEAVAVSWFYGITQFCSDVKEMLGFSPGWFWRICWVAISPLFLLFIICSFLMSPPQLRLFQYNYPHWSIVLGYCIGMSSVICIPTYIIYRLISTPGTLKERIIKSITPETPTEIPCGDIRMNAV
assay overview: Displacement of [3H]paroxetine from rat cortical 5HTT reuptake site at 100 nM
observable: inhibition (%)

Some solved cases for reference:
Fc1cccc2[nH]cc([C@H]3CC[C@H](N4CCN(c5cccc6[nH]ccc56)CC4)CC3)c12 | 0
COc1ccc2[nH]cc([C@H]3CC[C@@H](N4CCN(c5cccc6[nH]ccc56)CC4)CC3)c2c1 | 25

(a) CC(C)n1cc([C@H]2CC[C@H](N3CCN(c4cccc5[nH]ccc45)CC3)CC2)c2cc(C#N)ccc21
(b) Clc1ccc2[nH]cc([C@H]3CC[C@@H](N4CCN(c5cccc6[nH]ccc56)CC4)CC3)c2c1
Ask: Of a and b , which carries the smaller reported inhibition figure? # reply format: chosen label
Reply: a
(a: 16%, b: 28%)

---

experimental system: 5-hydroxytryptamine receptor 1A (Homo sapiens) (UniProt P08908)
assay overview: Intrinsic activity at human 5HT1A receptor expressed in CHO cells by GTPgammaS binding assay relative to serotonin
Format: functional, cell-based
observable: Emax (%)

(P) N#Cc1ccc2[nH]cc([C@H]3CC[C@@H](N4CCN(c5cccc6nccnc56)CC4)CC3)c2c1
(Q) FC(F)(F)c1nc2c(N3CCN([C@H]4CC[C@H](c5c[nH]c6ccccc65)CC4)CC3)cccc2[nH]1
Ask: I'm curious whether P or Q has the smaller Emax number. Which is it? Use the label to indicate which entry you chose.
Reply: P

(I) N#Cc1ccc2[nH]cc([C@H]3CC[C@@H](N4CCN(c5cccc6ncccc56)CC4)CC3)c2c1
(II) Fc1ccc2[nH]cc([C@H]3CC[C@@H](N4CCN(c5cccc6ccccc56)CC4)CC3)c2c1
Ask: I would appreciate it if you could say which entry, I or II , has the lower Emax value. Respond using the label that marks the chosen record.
Reply: I

(1) FC(F)(F)c1nc2c(N3CCN([C@H]4CC[C@@H](c5c[nH]c6ccccc65)CC4)CC3)cccc2[nH]1
(2) Fc1ccc2[nH]cc([C@H]3CC[C@H](N4CCN(c5cccc6cccnc56)CC4)CC3)c2c1
(3) N#Cc1ccc2[nH]cc([C@H]3CC[C@H](N4CCN(c5cccc6[nH]ccc56)CC4)CC3)c2c1
Ask: Arrange items by their Emax values in increasing order. Rank them, then answer with their labels in that order.
Reply: 1, 3, 2
